# SYSTEM_UNDER_TEST: IRAK4 protein (Homo sapiens)
# Sequence (Q9NWZ3 whole entry): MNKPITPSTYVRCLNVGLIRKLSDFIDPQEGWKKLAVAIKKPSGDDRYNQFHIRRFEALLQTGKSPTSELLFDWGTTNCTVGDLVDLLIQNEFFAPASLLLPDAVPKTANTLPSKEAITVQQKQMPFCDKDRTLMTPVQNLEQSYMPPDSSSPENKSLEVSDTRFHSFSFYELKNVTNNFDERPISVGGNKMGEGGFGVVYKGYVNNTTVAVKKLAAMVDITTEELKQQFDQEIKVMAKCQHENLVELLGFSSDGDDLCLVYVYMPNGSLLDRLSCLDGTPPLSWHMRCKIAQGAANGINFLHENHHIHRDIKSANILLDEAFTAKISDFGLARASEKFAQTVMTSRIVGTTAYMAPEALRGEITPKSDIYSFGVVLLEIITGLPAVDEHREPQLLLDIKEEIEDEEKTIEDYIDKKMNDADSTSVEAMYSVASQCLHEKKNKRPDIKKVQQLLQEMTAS
# ASSAY_PROCEDURE: IRAK4 Degradation Assay in THP-1 Cells (Western Blot)
# Type: cell-based
# Design: endogenous in cells; host or cells: THP-1 cells
# CONDITION_PARAMETERS: THP-1 cells, 24 hours, 0.0128 to 1000 nM, IRAK4 protein level by Western Blot; read-out: DC50
MEASURE_NAME: DC50 (nM)
Your answer is read as nM, so omit the unit and give the number.

Determine its reported DC50: O=C1CCC(N2Cc3cc(N4CCC(CN5CCC6(CC5)Cc5cc(NC(=O)c7cnn8cccnc78)c(N7CCC(CO)CC7)cc5O6)CC4)ccc3C2=O)C(=O)N1 (single isomer, unassigned) [Example 85]
0.66
